- Measurement Target: human TRPV4 (hTRPV4/CHO cells) (Homo sapiens, UniProt Q9HBA0)
- Construct: expressed in transfected cells; host or cells: CHO-K1
- Sequence (Q9HBA0 whole entry): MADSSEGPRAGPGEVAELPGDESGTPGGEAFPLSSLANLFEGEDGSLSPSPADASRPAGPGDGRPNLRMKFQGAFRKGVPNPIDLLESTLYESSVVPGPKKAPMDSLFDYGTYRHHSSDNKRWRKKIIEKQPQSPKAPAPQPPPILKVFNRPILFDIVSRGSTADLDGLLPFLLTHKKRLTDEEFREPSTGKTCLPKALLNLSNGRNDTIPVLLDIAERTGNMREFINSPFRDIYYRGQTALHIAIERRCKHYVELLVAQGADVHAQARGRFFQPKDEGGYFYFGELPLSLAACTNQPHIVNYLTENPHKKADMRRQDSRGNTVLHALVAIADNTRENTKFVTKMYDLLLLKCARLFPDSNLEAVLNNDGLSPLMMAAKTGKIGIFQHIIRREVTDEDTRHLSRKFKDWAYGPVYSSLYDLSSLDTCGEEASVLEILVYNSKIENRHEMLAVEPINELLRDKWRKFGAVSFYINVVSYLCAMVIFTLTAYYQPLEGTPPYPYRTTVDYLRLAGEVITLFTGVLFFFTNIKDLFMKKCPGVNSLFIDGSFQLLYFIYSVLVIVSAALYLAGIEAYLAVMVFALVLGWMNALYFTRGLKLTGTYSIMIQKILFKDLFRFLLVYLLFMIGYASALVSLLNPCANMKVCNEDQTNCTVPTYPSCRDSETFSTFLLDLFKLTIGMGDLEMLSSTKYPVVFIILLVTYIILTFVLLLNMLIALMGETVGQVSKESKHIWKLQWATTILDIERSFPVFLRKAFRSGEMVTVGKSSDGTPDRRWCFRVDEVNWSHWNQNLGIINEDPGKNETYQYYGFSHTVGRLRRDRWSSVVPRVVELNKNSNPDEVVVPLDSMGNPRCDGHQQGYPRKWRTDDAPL
- Method: Test Example 1: TRPV4 inhibitory activity (IC50 value), 4α-PDD stimulation, Fluo4 calcium fluorescence (FLIPR TETRA)
- Type: cell-based
- Study Conditions: Test Example 1, 4α-PDD stimulation, read-out: Test 1 IC50
pIC50: −log10 of the molar value.
Metric Name: pIC50

Reference set, count: 5
Molecular String: Cc1nc(C)c(-c2csc(NC(=O)Cn3cc(COc4ccccc4)nn3)n2)s1
pIC50: > 7.00

Molecular String: Cc1nc(C)c(-c2nc(NC(=O)Cc3c(F)cccc3F)sc2-c2ccc(O)cc2)s1
pIC50: 5.10 to 6.00

Molecular String: Cc1nc(C)c(-c2csc(NC(=O)Cc3ccc(F)c(Cl)c3)n2)s1
pIC50: > 7.00

Molecular String: CCNC(=O)N1C[C@H](c2ccccc2)C[C@H]1C(=O)Nc1nc(-c2sc(C)nc2C)cs1
pIC50: 5.10 to 6.00

Molecular String: Cc1nc(C(=O)NCCN(C)C)c(-c2csc(NC(=O)Cc3c(F)cccc3F)n2)s1
pIC50: 5.10 to 6.00

Query: Could you tell me which pIC50 is on file for `Cc1nc(C)c(-c2csc(NC(=O)[C@@H]3CC[C@H](c4ccccc4)N3C(=O)OC(C)(C)C)n2)s1` ?
Response: > 7.00

Query: What value of measured pIC50 is listed for `Cc1nc(C)c(-c2csc(NC(=O)[C@@H]3C[C@@H](N4CCC(c5ccccc5)CC4)CN3C(=O)C(F)(F)F)n2)s1` ?
Response: > 7.00

###

Consider the following compounds and their measured pKi readings.
- Measurement Target: human TRPV4 (hTRPV4/CHO cells) (Homo sapiens)
- Construct: expressed in transfected cells; host or cells: CHO-K1
- Method: Test Example 4: TRPV4 inhibitory activity (Ki value), 4α-PDD stimulation, Fluo-3 calcium fluorescence (FDSS 3000)
- Type: cell-based
- Study Conditions: Test Example 4, 4α-PDD stimulation, read-out: Test 4 Ki
pKi: −log10 of the molar value.

Sample records with pKi:
Compound: Cc1nc(C)c(-c2csc(NC(=O)[C@H]3CC[C@H](SCC(F)(F)F)C3)n2)s1 (racemic)
pKi: > 7.00
--
Compound: Cc1nc(C)c(-c2csc(NC(=O)Cc3ccc(S(=O)(=O)C(F)F)cc3)n2)s1
pKi: > 7.00
--
Compound: Cc1nc(C)c(-c2csc(NC(=O)Cc3cc(F)cc(F)c3)n2)s1
pKi: > 7.00
--
Compound: Cc1nc(C)c(-c2csc(NC(=O)Cc3ccccn3)n2)s1
pKi: 6.00 to 7.00

Query: I have this compound here, `Cc1nc(C)c(-c2csc(NC(=O)c3ccc(F)c(Cl)c3)n2)s1` , and I need its recorded pKi.
Response: 6.00 to 7.00

Query: So what does the record say about pKi for Cc1nc(C)c(-c2csc(NC(=O)CC3CC(F)(F)C3(F)F)n2)s1 (centres unmarked) ?
Response: 6.00 to 7.00

Query: For the compound shown here, Cc1nc(C)c(-c2csc(NC(=O)[C@H]3CC[C@H](Cl)C3)n2)s1 (racemic) , give the reported pKi.
Response: > 7.00

Query: Returns the measured pKi for the input compound. Input: `Cc1nc(C)c(-c2csc(NC(=O)c3ccc(Br)cc3)n2)s1`
Response: 6.00 to 7.00

###

Measured IC50 by item
- Measurement Target: human TRPV4 (hTRPV4/CHO cells) (Homo sapiens)
- Construct: expressed in transfected cells; host or cells: CHO-K1
- Method: Test Example 1: TRPV4 inhibitory activity (IC50 value), 4α-PDD stimulation, Fluo4 calcium fluorescence (FLIPR TETRA)
- Assay type: cell-based
- Study Conditions: Test Example 1, 4α-PDD stimulation, read-out: Test 1 IC50

Query: Consider the compound shown here: `O=C(CO)NCc1nc(CO)sc1-c1csc(NC(=O)Cc2ccc(S(=O)(=O)C(F)(F)F)cc2)n1` What is its recorded IC50?
Response: 100 to 1000 nM

Query: Which value of IC50 has been reported for Cc1nc(C)c(-c2csc(NC(=O)C3(CC(=O)OC(C)(C)C)CN(c4ccc(C(F)(F)F)cc4)C3)n2)s1 (racemic) in the records?
Response: < 100 nM

Query: Which IC50 is listed for `Cc1nc(CO)sc1-c1csc(NC(=O)C2CN(S(=O)(=O)c3ccc(C(F)(F)F)cc3)C2)n1` ?
Response: < 100 nM

Query: Item `Cc1nc(C)c(-c2nc(NC(=O)Cc3c(F)cccc3F)sc2-c2cccc(O)c2)s1` has what recorded IC50?
Response: 1000 to 8000 nM

Query: Any idea what its IC50 is? The compound is Cc1nc(C)c(-c2csc(NC(=O)C3Cc4c([N+](=O)[O-])cc(Cl)c(Cl)c4O3)n2)s1 (stereo not shown)
Response: < 100 nM

Query: Return reported IC50; argument: `Cc1nc(C)c(-c2csc(NC(=O)Cn3cc(-c4ccc(S(C)(=O)=O)cc4)nn3)n2)s1`
Response: 100 to 1000 nM

Query: Report IC50 for Cc1nc(C)c(-c2csc(NCC3Cc4cc(Cl)ccc4O3)n2)s1 (racemic) please.
Response: < 100 nM

###

- Measurement Target: human TRPV4 (hTRPV4/CHO cells) (Homo sapiens, UniProt Q9HBA0)
- Construct: expressed in transfected cells; host or cells: CHO-K1
- Method: Test Example 1: TRPV4 inhibitory activity (IC50 value), 4α-PDD stimulation, Fluo4 calcium fluorescence (FLIPR TETRA)
- Format: cell-based
- Study Conditions: 1 μmol/L 4α-PDD, Fluo4-AM, read-out: TRPV4 inhibitory activity (IC50 value)
Metric Name: IC50 (nM)

Consider the worked cases shown below.
Molecular String: Cc1nc(CO)sc1-c1csc(NC(=O)C2CN(c3ccc(C(F)(F)F)cn3)C2)n1
Metric Name: IC50
Readout Number: 22
--
Molecular String: CC(=O)NCc1nc(CO)sc1-c1csc(NC(=O)Cc2ccc(S(=O)(=O)C(F)(F)F)cc2)n1
Metric Name: IC50
Readout Number: 22

P = Cc1nc(C)c(-c2csc(NC(=O)Cc3ccc(S(=O)(=O)N4CCCCC4)cc3)n2)s1
Q = Cc1nc(C)c(-c2csc(NC(=O)Cc3cc(OCC(F)(F)F)cc(C(=O)N[C@H](c4ccccc4)C(F)(F)F)c3)n2)s1
Query: Looking at P and Q , which one comes out lower in IC50 terms? Output the label that corresponds to your choice.
Response: Q
(Q: 1.6 nM, P: 30 nM)

###

- Measurement Target: human TRPV4 (hTRPV4/CHO cells) (Homo sapiens, UniProt Q9HBA0)
- Construct: expressed in transfected cells; host or cells: CHO-K1
- Method: Test Example 1: TRPV4 inhibitory activity (IC50 value), 4α-PDD stimulation, Fluo4 calcium fluorescence (FLIPR TETRA)
- Assay type: cell-based
- Study Conditions: Test Example 1, 4α-PDD stimulation, read-out: Test 1 IC50
Each entry below lists one item and its recorded IC50 value.

Examples with answers:
Compound: Cc1nc(CO)sc1-c1csc(NC(=O)C2CN(c3ncc(C(F)(F)F)cn3)C2)n1 [Compound I-307]
IC50: < 100 nM
//
Compound: NC(=O)CCc1nc(CO)sc1-c1csc(NC(=O)Cc2ccc(S(=O)(=O)C(F)(F)F)cc2)n1 [Compound I-407]
IC50: 100 to 1000 nM
//
Compound: Cc1nc(C)c(-c2csc(NC(=O)C3CN(S(=O)(=O)c4ccc(Cl)cc4Cl)C3)n2)s1 [Compound I-503]
IC50: < 100 nM

Query: Quick one: IC50 of Cc1nc(C)c(-c2csc(NC(=O)[C@H]3CC[C@@H](c4ccccc4)N3C(=O)OC(C)(C)C)n2)s1 [Compound I-211] ?
Response: 100 to 1000 nM

Query: Quick one: IC50 for Cc1nc(C)c(-c2csc(NC(=O)C3CN(c4ccccc4C(F)(F)F)C3)n2)s1 [Compound I-280] ?
Response: < 100 nM

Query: Fill in: IC50 of Cc1nc(CO)sc1-c1csc(NC(=O)[C@H]2C[C@@H](OCc3ccccc3C(F)(F)F)C2)n1 [Compound I-346] is ___
Response: < 100 nM

Query: Quick one: IC50 of Cc1nc(C)c(-c2csc(NC(=O)Cc3cccc(NC(=O)C4CCCCC4)c3)n2)s1 [Compound I-416] ?
Response: < 100 nM

Query: For Cc1nc(C)c(-c2nc(NC(=O)Cc3c(F)cccc3F)sc2C(=O)Nc2ccccc2)s1 [Compound I-75] , what is its reported IC50?
Response: 1000 to 8000 nM

###

- Measurement Target: human TRPV4 (hTRPV4/CHO cells) (Homo sapiens, UniProt Q9HBA0)
- Construct: expressed in transfected cells; host or cells: CHO-K1
- Method: Test Example 1: TRPV4 inhibitory activity (IC50 value), 4α-PDD stimulation, Fluo4 calcium fluorescence (FLIPR TETRA)
- Type: cell-based
- Study Conditions: Test Example 1, 4α-PDD stimulation, read-out: Test 1 IC50
The compounds listed here are annotated with their IC50.

Compound: Cc1nc(C)c(-c2csc(NC(=O)Cn3cc(C(F)(F)F)cn3)n2)s1
IC50: < 100 nM

Query: Field request: IC50 | item: `Cc1nc(C)c(-c2csc(NC(=O)[C@H]3C[C@@H](OCc4ccc(C(F)(F)F)cc4)C3)n2)s1`
Response: < 100 nM

Query: Looking for the measured IC50 of `Cc1nc(CO)sc1-c1csc(NC(=O)CC2CCN(S(=O)(=O)C(F)(F)F)CC2)n1` , can you help?
Response: 100 to 1000 nM

Query: Would you mind telling me what IC50 value was observed for `Cc1nc(C)c(-c2csc(NC(=O)[C@@H]3C[C@@H](Oc4ccccc4)CN3)n2)s1` ?
Response: 100 to 1000 nM

Query: Report IC50 for `CCOC(=O)c1nc(C)c(-c2csc(NC(=O)Cc3c(F)cccc3F)n2)s1` please.
Response: 100 to 1000 nM

Query: Report IC50 for Cc1nc(C)c(-c2csc(NC(Cc3ccc(Cl)cc3)C(=O)NC3CCOCC3)n2)s1 (racemic) please.
Response: 1000 to 8000 nM

Query: Any idea what its IC50 is? The compound is Cc1nc(CO)sc1-c1csc(NC(=O)C2C[C@H](C(F)(F)F)CN2C(=O)OCC(F)(F)F)n1 (stereo partly shown)
Response: 100 to 1000 nM

Query: Fill in: IC50 of `Cc1nc(C)c(-c2csc(NC(=O)[C@@H]3C[C@H](c4ccccc4)CN3)n2)s1` is ___
Response: 1000 to 8000 nM

Query: Reported IC50 for Cc1nc(C)c(-c2csc(NC(=O)C3Cc4ccc(Cl)c(Cl)c4O3)n2)s1 (stereo not shown) : what is it?
Response: < 100 nM

Query: Would you kindly share the measured IC50 for Cc1nc(C)c(-c2csc(NC(=O)C(C)c3c(F)cccc3F)n2)s1 (stereo not shown) ?
Response: 100 to 1000 nM

Query: Look up IC50: Cc1nc(C)c(-c2csc(NC(=O)C3CC(C(C)(C)C)=NO3)n2)s1 (stereo not shown)
Response: 100 to 1000 nM

Query: Which IC50 reading was recorded for the compound `Cc1nc(C)c(-c2csc(NC(=O)Cc3ccccc3[N+](=O)[O-])n2)s1` ?
Response: < 100 nM

Query: Quick one: IC50 for `CC(C)OC(=O)NCc1nc(CO)sc1-c1csc(NC(=O)C2CN(c3ccc(C(F)(F)F)cc3)C2)n1` ?
Response: < 100 nM

Query: Dear colleague, I am looking for the recorded IC50 of the following compound: `Cc1nc(C)c(-c2csc(NC(=O)[C@H](Cc3ccccc3)NC(=O)OC(C)(C)C)n2)s1`
Response: 100 to 1000 nM

Query: Query (compound): Cc1nc(C)c(-c2csc(NCC(O)c3ccccc3)n2)s1 (racemic) ; field requested: IC50
Response: 100 to 1000 nM

Query: Fill blank: measured IC50 of the compound `COC(=O)c1ccc(CN2CC(C(=O)Nc3nc(-c4sc(C)nc4C)cs3)C2)cc1` is ____.
Response: 100 to 1000 nM

Just for reference, patent US20170066759A1 is where these values come from.
